- protocol.description: in vitro
- cond: CD-1, mouse, s9
reported.property: half-life (min)
Express your answer in min, writing the number without its unit.

Lookup: Fill in the blank: the reported half-life of CO[C@H]1/C=C/O[C@@]2(C)Oc3c(C)c(O)c4c(c3C2=O)C2=NC3(CCN(CC(C)C)CC3)NC2=C(NC(=O)/C(C)=C\C=C\[C@H](C)[C@H](O)[C@@H](C)[C@@H](O)[C@@H](C)[C@H](OC(C)=O)[C@@H]1C)C4=O is ____.
Found: 25

----------
- target.under.test: CYP 3A4 (Homo sapiens, UniProt P08684)
- Sequence (P08684 whole entry): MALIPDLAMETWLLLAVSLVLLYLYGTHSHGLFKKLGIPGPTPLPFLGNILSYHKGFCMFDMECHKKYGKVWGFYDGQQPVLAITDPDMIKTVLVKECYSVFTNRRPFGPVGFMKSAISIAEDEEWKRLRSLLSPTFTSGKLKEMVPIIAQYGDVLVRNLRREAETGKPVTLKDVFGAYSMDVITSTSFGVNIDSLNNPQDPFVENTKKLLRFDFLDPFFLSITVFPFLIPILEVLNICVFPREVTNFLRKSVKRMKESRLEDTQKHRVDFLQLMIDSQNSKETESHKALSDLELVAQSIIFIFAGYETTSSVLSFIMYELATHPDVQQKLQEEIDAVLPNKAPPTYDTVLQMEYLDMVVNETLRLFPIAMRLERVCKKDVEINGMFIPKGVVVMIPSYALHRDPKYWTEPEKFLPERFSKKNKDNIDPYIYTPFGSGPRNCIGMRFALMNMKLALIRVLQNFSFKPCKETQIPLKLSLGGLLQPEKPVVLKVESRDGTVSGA
- cond: read-out: CYP inhibition IC50; CYP 3A4, substrate Midazolam; ND = Not Detected
reported.property: pIC50
Here pIC50 is given on a logarithmic scale as minus log10 of the concentration in mol/L.

Lookup: Need pIC50 of COC1C=COC2(C)Oc3c(C)c(O)c4c(=O)c(c5oc6cc(OCCN(C)C)ccc6nc-5c4c3C2=O)NC(=O)C(C)=CC=CC(C)C(O)C(C)C(O)C(C)C(OC(C)=O)C1C (stereo not shown) , thanks.
Found: 5.09

Values were extracted from paper PMC10766536.
